# System: Digitaria sanguinalis (DIGSA)
# TEST PROTOCOL: Post-emergence efficacy, Method A
# Assay type: in vivo
# DETAILS: Digitaria sanguinalis, post-emergence, 312 h; Application Rate 500 g/Ha; evaluated after 13 days; Method A; read-out: Control of weed species after post-emergence application, DIGSA (100=total damage to plant; 0=no damage to plant)
Label rule, in plain words: pest or weed control at 500 g/ha of 80% and up is satisfied, under 80% is not satisfied.

| COMPOUND | CLASS LABEL |
| --- | --- |
| Nc1cc(-c2cc[n+](CCC(=O)O)nc2)ncn1 [Compound A163] | not satisfied |
| COC(=O)CC[n+]1ccc(-c2ccncc2)cn1 [Compound A203] | not satisfied |
| CCOP(=O)(O)CCC[n+]1ccc(-c2ncccn2)cn1 [Compound A232] | satisfied |
| CN(C)S(=O)(=O)[N-]C(=O)C[n+]1ccc(-c2ncccn2)cn1 [Compound A214] | satisfied |
| O=C(O)C(O)C[n+]1ccc(-c2ncccn2)cn1 (centres unmarked) [Compound A180] | not satisfied |
| Cc1cc(Cl)cnc1-c1cc[n+](CCC(=O)O)nc1 [Compound A156] | not satisfied |
| CC(CNS(=O)(=O)[O-])[n+]1ccc(-c2ncccn2)cn1 (centres unmarked) [Compound A223] | satisfied |
| O=S(=O)([O-])CC[n+]1ccc(-c2ccc(C(F)(F)F)cn2)cn1 [Compound A174] | not satisfied |

###

# Test system: Ipomoea hederacea (IPOHE)
# TEST PROTOCOL: Post-emergence efficacy, Method A
# Format: in vivo
# DETAILS: Ipomoea hederacea, post-emergence, 312 h, Application rate 500 g/Ha; evaluated after 13 days; 100=total damage to plant, 0=no damage to plant; read-out: Control of weed species after post-emergence application, IPOHE
Label rule, in plain words: pest or weed control at 500 g/ha of 20% and up is MET, under 20% is NOT MET.

| COMPOUND STRING | CLASS LABEL |
| --- | --- |
| Cc1cnc(-c2cc[n+](CCS(=O)(=O)[O-])nc2)cn1 | MET |
| CC(C)(C[n+]1ccc(-c2ncccn2)cn1)S(=O)(=O)[O-] | MET |
| Cc1cnc(-c2cc[n+](CCC(=O)O)nc2)nc1 | MET |
| CCOP(=O)(CC[n+]1ccc(-c2cnccn2)cn1)OCC | NOT MET |
| O=S(=O)([O-])CC[n+]1ccc(-c2ccnc(C(F)(F)F)n2)cn1 | MET |
| O=c1cc(-c2cc[n+](CCS(=O)(=O)[O-])nc2)nc[nH]1 | NOT MET |
| Cc1cnc(-c2cc[n+](CCS(=O)(=O)[O-])nc2)nc1C | MET |
| O=S(=O)([O-])CC[n+]1ccc(-c2cc(C(F)(F)F)ncn2)cn1 | MET |
| COc1nc(-c2cc[n+](CCC(=O)[O-])nc2)ncc1C | NOT MET |
| COC(=O)c1cnc(-c2cc[n+](CCS(=O)(=O)[O-])nc2)nc1 | MET |
| Cc1ccnc(-c2cc[n+](CCS(=O)(=O)[O-])nc2)n1 | MET |
| O=C(O)CC[n+]1ccc(-c2ncc(F)cc2F)cn1 | NOT MET |
| O=S(=O)([O-])CC[n+]1ccc(-c2cncc(C(F)(F)F)n2)cn1 | MET |
| COc1cncc(-c2cc[n+](CCCS(=O)(=O)[O-])nc2)n1 | MET |
| Cc1cnc(-c2cc[n+](CCS(=O)(=O)[O-])nc2)c(Cl)c1 | MET |
| O=S(=O)([O-])CC[n+]1ccc(-c2ncccc2Cl)cn1 | MET |
| Cc1cnc(-c2cc[n+](CCC(=O)O)nc2)c(Cl)c1 | NOT MET |
| O=C(O)CC[n+]1ccc(-c2ccc(C(F)(F)F)nn2)cn1 | MET |
| Cc1c[n+](CCS(=O)(=O)[O-])ncc1-c1ncccn1 | MET |
